# self-cleavage annotations
B1: HDV Ribozyme (parent)
chain: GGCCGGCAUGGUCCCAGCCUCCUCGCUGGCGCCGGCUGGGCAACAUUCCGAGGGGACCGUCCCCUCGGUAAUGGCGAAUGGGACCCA

# Variants of: B1
# experiment_notes: self-cleavage, relative activity (ratio to wild type); higher = more cleavage; co-transcriptional

>  <change>
U12G A51C

>  <self-cleavage>
0.415

$$$$
>  <change>
C30A U37A

>  <self-cleavage>
0

$$$$
>  <change>
C44U U79C

>  <self-cleavage>
0.269

$$$$
>  <change>
C32G G40A

>  <self-cleavage>
0.0831

$$$$
>  <change>
G76U C86G

>  <self-cleavage>
1.09

$$$$
>  <change>
G10U U23A

>  <self-cleavage>
0.604

$$$$
>  <change>
C26A G82U

>  <self-cleavage>
0.317

$$$$
>  <change>
G34U G80U

>  <self-cleavage>
0.128

$$$$
>  <change>
G1C G2U

>  <self-cleavage>
0.256

$$$$
>  <change>
U20A A42U

>  <self-cleavage>
0

$$$$
>  <change>
C13U C26U

>  <self-cleavage>
1.07

$$$$
>  <change>
G10U A43U

>  <self-cleavage>
0.284

$$$$
>  <change>
G35A A77C

>  <self-cleavage>
0.131

$$$$
>  <change>
C61G C86A

>  <self-cleavage>
1.03

$$$$
>  <change>
G39C C63U

>  <self-cleavage>
0.369

$$$$
>  <change>
C18G G40C

>  <self-cleavage>
0.0852

$$$$
>  <change>
G29A C86G

>  <self-cleavage>
0.138

$$$$
>  <change>
A45U C61U

>  <self-cleavage>
0.876

$$$$
>  <change>
G11A A70C

>  <self-cleavage>
0.175

$$$$
>  <change>
C4G G40U

>  <self-cleavage>
0.381

$$$$
>  <change>
U65C G67U

>  <self-cleavage>
0.627

$$$$
>  <change>
G5U C19U

>  <self-cleavage>
0.0923

$$$$
>  <change>
C14A C41U

>  <self-cleavage>
0.539

$$$$
>  <change>
U9A A87U

>  <self-cleavage>
1.03

$$$$
>  <change>
C36U A45U

>  <self-cleavage>
0.658

$$$$
>  <change>
G53U C62U

>  <self-cleavage>
1.06

$$$$
>  <change>
G31A G54A

>  <self-cleavage>
0.295

$$$$
>  <change>
G40C U65A

>  <self-cleavage>
0.326

$$$$
>  <change>
A42U G74U

>  <self-cleavage>
0.277

$$$$
>  <change>
A42C C66G

>  <self-cleavage>
0.243

$$$$
>  <change>
A16C C36U

>  <self-cleavage>
0.578

$$$$
>  <change>
G10C G25C

>  <self-cleavage>
0.178

$$$$
>  <change>
C44G C48A

>  <self-cleavage>
0.543

$$$$
>  <change>
G28C C64A

>  <self-cleavage>
0.104

$$$$
>  <change>
C21G A45C

>  <self-cleavage>
0.18

$$$$
